Values compiled from patent US9751882B2.

- SUBJECT OF TEST: dopamine D2 receptor (Rattus norvegicus)
- Sequence (P61169 whole entry): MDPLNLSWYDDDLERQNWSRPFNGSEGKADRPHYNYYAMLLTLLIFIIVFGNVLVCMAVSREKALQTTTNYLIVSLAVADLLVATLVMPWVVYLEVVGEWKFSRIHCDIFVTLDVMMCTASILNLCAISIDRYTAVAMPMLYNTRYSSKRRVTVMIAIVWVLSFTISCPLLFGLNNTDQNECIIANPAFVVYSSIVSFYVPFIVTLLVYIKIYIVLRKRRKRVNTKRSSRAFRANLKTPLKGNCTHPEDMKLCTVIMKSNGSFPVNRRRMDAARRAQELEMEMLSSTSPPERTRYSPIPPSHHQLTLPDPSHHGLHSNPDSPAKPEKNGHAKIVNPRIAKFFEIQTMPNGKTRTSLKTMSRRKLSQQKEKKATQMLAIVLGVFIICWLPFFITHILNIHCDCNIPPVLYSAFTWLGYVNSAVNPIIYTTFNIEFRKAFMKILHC
- ASSAY PROTOCOL: Radioligand binding affinity on dopamine D2 receptor ([3H]Spiperone)
- CONDITION LABEL: D2 receptor protein expressed in HEK-293 cells
# Fulfilled = Ki below 40 nM (exclusive); Not fulfilled = Ki at/above 40 nM

These recorded examples may help you get a feel for the data.
COc1cc2c(cc1O)[C@@H]1Cc3sc(CCCCl)cc3CN1CC2: Fulfilled
CCCc1cc2c(s1)C[C@H]1c3cc(O)c(OC)cc3CCN1C2: Fulfilled
COc1cc2c(cc1O)[C@@H]1Cc3sccc3CN1CC2: Not fulfilled
CCCCc1cc2c(s1)C[C@H]1c3cc(O)c(OC)cc3CCN1C2: Fulfilled
COc1cc2c(cc1O)[C@@H]1Cc3sc(CCCCCl)cc3CN1CC2: Not fulfilled
COc1cc2c(cc1O)[C@@H]1Cc3sc(CCC(C)C)cc3CN1CC2: Not fulfilled

Moving on to another compound below.
Asked: hey, is Ki for "COc1cc2c(cc1O)[C@@H]1Cc3sc(CCCl)cc3CN1CC2" lower than 40 nM or not?
Given back: Fulfilled
